Test system: NCI-H226 lung
Assay: NCI-60 one-dose screen, 48 h (100 = growth as untreated, 0 = no growth, -100 = all killed)
Settings: 10 µM unless noted
The panel holds about 83,000 compounds, 20% with a hit somewhere; the sample as a whole holds those more often.
Decision: growth >= 70% yields yes, all other cases yield no.

Some solved entries appear below for comparison.
COc1ccc(-c2nn(-c3ccc(NC(=O)c4cc(Cl)cc(Cl)c4)cc3)cc2-c2ccncc2)cc1Cl    yes
C=CC(=O)NC(=O)Nc1ccccc1Cl    yes

Quick check, growth >= 70%? O=C1CN(CCN2CC(=O)NC(=O)C2)CC(=O)N1
yes

====

System: MDA-MB-435 melanoma
Experiment: NCI-60 one-dose screen, 48 h (100 = growth as untreated, 0 = no growth, -100 = all killed)
Conditions: 10 µM unless noted
The panel holds about 83,000 compounds, 20% with a hit somewhere; the sample as a whole holds those more often.
measured.parameter: growth (%)
Entry rule: numbers only, all in %.

Example cases with answers are listed next.
C=C1C(=O)O[C@H]2[C@H]1CC/C(COC(=O)c1cccc3ccccc13)=C\CC[C@@]1(C)O[C@@H]21    -54.2
CC(C(=O)O)N1C(N)=NNC1c1ccccc1O (stereo not given)    104

# growth of COc1ccc(-c2nn(-c3cccc(Cl)c3)cc2-c2cc(-c3ccc(Br)cc3)[nH]c(=O)c2C#N)cc1 = 94.4

Value of measured growth for the entry Nc1nc(-c2cc3c(cc2Cl)NC(=O)/C3=C/c2ccccc2)cs1 : 24.4

// recorded growth for O=C(/C=C/c1ccco1)c1cccc(Nc2nc(Nc3ccccc3)nc(Nc3ccccc3)n2)c1 : 102

In plain terms, CC(=O)c1ccc2c(c1)C1C=CCC1[C@H](c1cc3c(cc1Br)OCO3)N2 (stereo not given in full) has a documented growth of -27.2

Form field growth, entry O=C(Nc1ccccc1Cl)c1c[nH]c(=O)c(-c2ccc(N3CCCOC4(CC4)C3)cc2)c1 : 56.4

====

Tested on: MALME-3M melanoma
Test: NCI-60 one-dose screen, 48 h (100 = growth as untreated, 0 = no growth, -100 = all killed)
Details: 10 µM unless noted
This is part of a sample that, as a whole, favours compounds with a hit. Of some 83,000 tested, about 20% had one in any assay.
measured.parameter: growth (%)
Field format: number, assumed %, no unit text.

In the examples that follow, each entry is paired with its recorded growth.
Cc1cccc[n+]1CCC[n+]1ccccc1C    105
COc1ccc(-c2nn(-c3ccc(NC(=O)c4ccc(Cl)c(C(F)(F)F)c4)cc3)cc2-c2ccncc2)cc1Cl    6.68
C[C@@H]1CC2C3C[C@H](F)C4=CC(=O)C=C[C@]4(C)[C@@]3(F)[C@@H](O)C[C@]2(C)[C@@]1(O)C(=O)CO (some centres undefined)    84.7
OC(COc1ccccc1Cl)CN1CCN(c2ccc(Cl)cc2)CC1 (centres undefined)    110
CCC1S/C(=N\N=C(/C)c2cccs2)N(c2ccccc2)C1=O (centres undefined)    181

The molecule listed as O=C(O)c1cn(C2CC2)c2cc(N3CCN(C(=O)CSc4nc(NS(=O)(=O)c5ccccc5)cc(=O)[nH]4)CC3)c(F)cc2c1=O has a reported growth of 82.4

Record summary for CCCCOc1nc2ccc(Cl)cc2cc1/C=C/C(=O)/C=C/c1ccc(Cl)cc1 : reported growth = 104

The molecule listed as COc1ccc(-c2ccc(NC(=O)Nc3ccc(Cl)c(C(F)(F)F)c3)c(C)n2)cc1 has a reported growth of 82.6

For reference, reported growth for O=c1nc(N2CCOCC2)oc2c(-c3cccc4ccccc34)cccc12 stands at 75.2

====

System: EKVX NSCLC
Assay: NCI-60 one-dose screen, 48 h (100 = growth as untreated, 0 = no growth, -100 = all killed)
Details: 10 µM unless noted
The panel holds about 83,000 compounds, 20% with a hit somewhere; the sample as a whole holds those more often.
growth vs 60%: at or above is yes (1), below is no (0).

Take a look at these entries with their results.
N#Cc1c(N)nc(Cl)c(C#N)c1C(=O)c1ccccc1    yes (1)
O=C(Nc1ccc(-n2cc(-c3ccncc3)c(-c3ccc(O)c(Cl)c3)n2)cc1)Nc1cccc(Cl)c1Cl    no (0)
CC(/C=C/C=C(\C)[C@H](O)[C@H](C)C(=O)O[C@H]1C[C@H](C)C=C2C=C[C@@]3(C)O[C@@H](O)CC(=O)[C@]3(C)[C@H]21)=C\C=C\C(=O)O    no (0)

Check the entry COc1cc(/C=C/C(=O)N2CCC=CC2=O)cc(OC)c1OC : does growth equal or exceed 60%?
no (0)

Reported growth at or above 60%? C/C(=N/NC(=O)Cn1c2ccccc2c2ccncc21)c1cccs1
yes (1)

Please tell me: is the molecule CCCC(C)(C)COC(=O)c1cccc(N)c1 at or over 60% in terms of growth?
yes (1)

# bool: growth of CCCCOc1c(N)cccc1C(=O)OCCN(CC)CC >= 60%
yes (1)

# check: growth of FC(F)(F)c1cn(CCN2CCOCC2)c2ncnc(Cl)c12 is greater than or equal to 60%
yes (1)

Could you verify whether the entry CCOC(=O)c1cnc2c(OC)ccc(OC)c2c1Cl shows growth of no less than 60%?
yes (1)

Could you please find out whether CC(C)(C)NC(C1=CC(C)(C)c2ccccc2C1=O)c1ccccc1 (stereo not given) has growth that meets 60% or exceeds it?
no (0)

Exam item: decide whether the reported growth for NC(=O)C1=C[C@H]2[C@H]3C=C[C@@]2(O)C(=O)O[C@@H]3O1 is at least 60%.
yes (1)

====

Tested on: HOP-92 NSCLC
Assay: NCI-60 one-dose screen, 48 h (100 = growth as untreated, 0 = no growth, -100 = all killed)
Details: 10 µM unless noted
This is part of a sample that, as a whole, favours compounds with a hit. Of some 83,000 tested, about 20% had one in any assay.
Reported growth values for the following compounds.
API: value field is a number in %; no unit string.

# example entries with known answers
NN=C(c1ccc(Cl)cc1)c1ccc(Cl)cc1    97
CCOC(=O)C1CN(Cc2ccccc2)C(=O)C1=O (stereo not given)    84.3
c1cncc(-c2nc3ccccc3[nH]2)c1    103
O=C(c1cc(-c2ccc(Cl)cc2)nc2ccccc12)N1N=C(c2ccccc2)CC1c1cc(-c2ccccc2)nn1-c1ccccc1 (stereo not given)    85
C=C1C(=O)O[C@H]2[C@H]1CC/C(C(=O)Nc1ccc(OC)c(C(N)=O)c1O)=C\CC[C@@]1(C)O[C@@H]21    26.4

Now for a further compound.
# growth of O=C(Nc1cccc(-n2ccc3c(NC(=O)c4ccccc4)nccc32)c1)c1cccc(C(F)(F)F)c1 = 40.3

====

System: HCC-2998 colon
Test: NCI-60 one-dose screen, 48 h
Details: 10 µM unless noted
Compounds without any hit were thinned out: in the full panel of roughly 83,000, 20% have a hit. Calls of active or inactive are those of the source. Rule for the calls: active = growth percent below 10; inactive = the rest.
Bench note: report the call from active, inactive

The following compounds have reported results that may help.
CCOC(=O)C(C)(CSSCC(C)(NC(=O)c1ccc2ccccc2c1)C(=O)OCC)NC(=O)c1ccc2ccccc2c1 (stereo not given)    inactive
Nn1c(CN2CCN(c3cc4c(cc3F)c(=O)c(C(=O)O)cn4C3CC3)CC2)n[nH]c1=S    inactive
CC[C@@]1(O)C(=O)OCc2c1cc1n(c2=O)Cc2c-1nc1ccccc1c2/C=N/OC(C)(C)C    active
CCc1c(C)c2cc3c(c(C)c2oc1=O)OCC(=O)N3    inactive
c1ccc2c(c1)Oc1cccnc1-n1nccc1-2    inactive
O=C(N/N=C1\SCC(=O)N1c1ccccc1)c1cc(-c2cc3ccccc3o2)nn1-c1ccccc1    inactive
CCOC(=O)c1cnc2c(OC)ccc(OC)c2c1Cl    inactive
O=C(Nc1ccc(-n2ccc3c(NC(=O)c4ccccc4)nccc32)cc1)Nc1ccc(Cl)c(Cl)c1    active
COc1ccc(Cl)cc1NC(=O)c1cc2c([nH]1)-c1nc(N)sc1CCC2    inactive

Next item in the queue.
# outcome recorded in this test, key = C=CC(=O)NC(=O)Nc1ccccc1Cl
inactive

====

Test system: HS 578T breast
Assay: NCI-60 one-dose screen, 48 h (100 = growth as untreated, 0 = no growth, -100 = all killed)
Settings: 10 µM unless noted
Compounds without any hit were thinned out: in the full panel of roughly 83,000, 20% have a hit.
measured.parameter: growth (%)
Quick note: give the figure in %, leave out the unit.

Looking up COc1ccc(Cl)cc1NC(=O)c1cc2c(n1C)-c1nc(NC(=O)C(C)(C)C)sc1CC2 , I found its growth recorded as 98.5

Recorded growth (compound COc1cc([C@@H]2c3cc4c(cc3C(OC3O[C@@H]5COC(C)O[C@H]5[C@H](O)[C@H]3O)C3COC(=O)[C@@H]32)OCO4)cc(OC)c1O (some centres undefined) ): 59.3

growth for C[C@]12O[C@H]1[C@H](O)c1c(cc(O)c3c1C(=O)c1cccc(O)c1-3)C2=O is 93.9

Measured growth, FC(F)(F)c1cccc([Si](F)(c2cccc(C(F)(F)F)c2)c2cccc(C(F)(F)F)c2)c1 : 85.3
